- procedure summary: NCI Yeast Anticancer Drug Screen. Data for the mec2-1 strain (AID 157)
- cond: S. cerevisiae mec2-1 strain, at 5.0 µM (retest, dose inferred, filed as 0.5), active compounds read high
Compounds without any hit were thinned out: in the full panel of roughly 79,000, 15% have a hit.
So I've got a bunch of compounds here, and I need their growth inhibition values.
Give bare numbers, in %.

Task: Any idea what growth inhibition was measured for `Oc1ccc2oc3ccccc3c2c1` ?
Output: 0

Task: And then O=C1c2ccccc2C(=O)C2(C(c3ccccc3)c3ccccc3)N=NCC12 (stereo unspecified) , what is it?
Output: -1

Task: And then `CCC(=O)C(CCN(CC)CC)(CCN(CC)CC)c1ccccc1` , what is it?
Output: -2

Task: And then `CC(C)C(C)(C(=O)O)C(C)C` , what is it?
Output: 3

Go through the items and report each one's growth inhibition.
1. O=C(Nc1ccc(Cl)cc1)OCC1C2C=CC(C2)C1CO (stereo unspecified)
2. COc1ccc(C(c2ccccc2C(=O)O)c2ccc(OC)c3ccccc23)c2ccccc12
3. CN(/N=C\c1cccc([N+](=O)[O-])c1)C(c1cccc([N+](=O)[O-])c1)N(C)/N=C/c1cccc([N+](=O)[O-])c1 (stereo unspecified)
4. O=C(O)c1ccc(CSc2ccc(Cl)cc2)cc1
5. CC(=O)Nc1ccc(Nc2ccc(C(=C3C=CC(=[N+](C)CCC#N)C=C3)c3ccc(N(C)CCC#N)cc3)cc2)cc1
6. Cc1[nH]nc(C(F)(F)F)c1N=NN1CCC(C(N)=O)CC1

Output:
-1
70
-1
-2
13
77

Task: Any idea what growth inhibition was measured for COCCNC(=O)C1C(=O)N(CCOC)C(=O)/C1=N/N (stereo unspecified) ?
Output: 1
